Target: Human BCL-XL protein (N-terminal HiBiT tagged BCL-XL expressed in HT1080 cells) (Homo sapiens, UniProt Q07817)
Construct: expressed in transfected cells; host or cells: HT-1080 (ATCC CCL-121), stably transduced with lentivirus pLV-UBC-N-HiBiT-BCL-XL-PGK-puro and selected with puromycin
Sequence (Q07817 whole entry): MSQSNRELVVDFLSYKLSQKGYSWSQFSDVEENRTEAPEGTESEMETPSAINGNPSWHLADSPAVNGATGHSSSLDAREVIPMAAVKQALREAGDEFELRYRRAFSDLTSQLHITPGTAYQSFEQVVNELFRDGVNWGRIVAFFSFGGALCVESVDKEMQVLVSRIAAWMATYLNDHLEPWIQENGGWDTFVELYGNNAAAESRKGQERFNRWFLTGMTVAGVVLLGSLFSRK
Experiment: HiBiT Based Degradation Assay
Type: cell-based
Details: bottom of BCL-XL degradation curve (remaining HiBiT-BCL-XL signal vs DMSO control), HT1080 cells, 24 hours incubation
Metric name: Ymin (24 h)

[
  {
    "Molecule": "Cc1c(OCC2CC3(CCN(CC(=O)Nc4cc5c(cc4F)c(C4CCC(=O)NC4=O)nn5C)CC3)C2)cccc1-c1ccc(N2CCc3cccc(C(=O)Nc4nc5ccccc5s4)c3C2)nc1C(=O)O (stereo not drawn) [Compound 121]",
    "Value observed": "B (30% ≤ Ymin < 50%)"
  },
  {
    "Molecule": "Cc1cc(OC2CC3(CCN(CC(=O)Nc4ccc5c(C6CCC(=O)NC6=O)nn(C)c5n4)CC3)C2)ccc1-c1ccc(N2CCc3cccc(C(=O)Nc4nc5ccccc5s4)c3C2)nc1C(=O)O (stereo not drawn) [Compound 195]",
    "Value observed": "B (30% ≤ Ymin < 50%)"
  },
  {
    "Molecule": "Cn1nc(C2CCC(=O)NC2=O)c2ccc(NC(=O)CN3CCC4(CC3)CC(Oc3cccc(-c5ccc(N6CCc7cccc(C(=O)Nc8nc9ccccc9s8)c7C6)nc5C(=O)O)c3C(F)(F)F)C4)c(F)c21 (stereo not drawn) [Compound 188]",
    "Value observed": "B (30% ≤ Ymin < 50%)"
  },
  {
    "Molecule": "Cc1c(OC2CC3(CCN(CC(=O)Nc4ccc5c(C6CCC(=O)NC6=O)nn(C)c5c4F)CC3)C2)cccc1-c1ccc(N2CCc3cccc(C(=O)Nc4nc5ccccc5s4)c3C2)nc1C(=O)O (stereo not drawn) [Compound 190]",
    "Value observed": "B (30% ≤ Ymin < 50%)"
  },
  {
    "Molecule": "Cn1nc(C2CCC(=O)NC2=O)c2ccc(NC(=O)CN3CCC4(CC3)CC(COc3cccc(-c5ccc(N6CCc7cccc(C(=O)Nc8nc9ccccc9s8)c7C6)nc5C(=O)O)c3C(F)(F)F)C4)cc21 (stereo not drawn) [Compound 132]",
    "Value observed": "B (30% ≤ Ymin < 50%)"
  }
]

###

Biological target: Human BCL-XL protein (N-terminal HiBiT tagged BCL-XL expressed in HT1080 cells) (Homo sapiens)
Construct: expressed in transfected cells; host or cells: HT-1080 (ATCC CCL-121), stably transduced with lentivirus pLV-UBC-N-HiBiT-BCL-XL-PGK-puro and selected with puromycin
Test: HiBiT Based Degradation Assay
Assay type: cell-based
Conditions: bottom of BCL-XL degradation curve (remaining HiBiT-BCL-XL signal vs DMSO control), HT1080 cells, 24 hours incubation

[
  {
    "Molecule": "C[C@@H]1C[C@@H](CCCOc2ccc(-c3ccc(N4CCc5cccc(C(=O)Nc6nc7ccccc7s6)c5C4)nc3C(=O)O)c(C(F)(F)F)c2)CCN1CC(=O)Nc1ccc2c(C3CCC(=O)NC3=O)nn(C)c2c1 (stereo partly shown) [Compound 209d]",
    "Ymin (24 h)": "B (30% ≤ Ymin < 50%)"
  },
  {
    "Molecule": "C[C@@H](COc1ccc(-c2ccc(N3CCc4cccc(C(=O)Nc5nc6ccccc6s5)c4C3)nc2C(=O)O)c(C(F)(F)F)c1)CC1CCN(CC(=O)Nc2ccc3c(C4CCC(=O)NC4=O)nn(C)c3c2)CC1 (single isomer, unassigned) [Compound 130a]",
    "Ymin (24 h)": "B (30% ≤ Ymin < 50%)"
  }
]

###

Catalogue of DC50 values
Target: Human BCL-XL protein (N-terminal HiBiT tagged BCL-XL expressed in HT1080 cells) (Homo sapiens)
Construct: expressed in transfected cells; host or cells: HT-1080 (ATCC CCL-121), stably transduced with lentivirus pLV-UBC-N-HiBiT-BCL-XL-PGK-puro and selected with puromycin
Assay: HiBiT Based Degradation Assay
Format: cell-based
Conditions: BCL-XL degradation, HT1080 cells expressing N-HiBiT-BCL-XL, 24 hours incubation, normalized with DMSO control; geometric mean for multiple data points; read-out: EC50 (24 h)

[
  {
    "Compound": "C[C@H]1C[C@H](CCCOc2ccc(-c3ccc(N4CCc5cccc(C(=O)Nc6nc7ccccc7s6)c5C4)nc3C(=O)O)c(C(F)(F)F)c2)CCN1CC(=O)Nc1ccc2c(C3CCC(=O)NC3=O)nn(C)c2c1 (some centres unmarked) [Compound 209b]",
    "DC50": "10 to 100 nM"
  },
  {
    "Compound": "Cc1cc(OCCC[C@H]2CCN(CC(=O)Nc3ccc4c(C5CCC(=O)NC5=O)nn(C)c4c3)[C@@H](C)C2)ccc1-c1ccc(N2CCc3ccnc(C(=O)Nc4nc5ccccc5s4)c3C2)nc1C(=O)O (some centres unmarked) [Compound 219b]",
    "DC50": "< 10 nM"
  },
  {
    "Compound": "Cc1cc(OCCCC2CCN(Cc3nc4ccc(C5CCC(=O)NC5=O)cc4[nH]3)CC2)ccc1-c1ccc(N2CCc3cccc(C(=O)Nc4nc5ccccc5s4)c3C2)nc1C(=O)O (centres unmarked)",
    "DC50": "10 to 100 nM"
  },
  {
    "Compound": "Cc1c(OCC2CC3(CCN(CC(=O)Nc4cc5c(cc4F)c(C4CCC(=O)NC4=O)nn5C)CC3)C2)cccc1-c1ccc(N2CCc3cccc(C(=O)Nc4nc5ccccc5s4)c3C2)nc1C(=O)O (centres unmarked)",
    "DC50": "10 to 100 nM"
  },
  {
    "Compound": "COc1c(NC(=O)CN2CCC3(CC2)CC(Oc2ccc(-c4ccc(N5CCc6cccc(C(=O)Nc7nc8ccccc8s7)c6C5)nc4C(=O)O)c(C(F)(F)F)c2)C3)ccc2c(C3CCC(=O)NC3=O)nn(C)c12 (centres unmarked)",
    "DC50": "10 to 100 nM"
  }
]

###

Biological target: Human BCL-XL protein (N-terminal HiBiT tagged BCL-XL expressed in HT1080 cells) (Homo sapiens)
Construct: expressed in transfected cells; host or cells: HT-1080 (ATCC CCL-121), stably transduced with lentivirus pLV-UBC-N-HiBiT-BCL-XL-PGK-puro and selected with puromycin
Assay: HiBiT Based Degradation Assay
Assay type: cell-based
Conditions: BCL-XL degradation, HT1080 cells expressing N-HiBiT-BCL-XL, 24 hours incubation, normalized with DMSO control; geometric mean for multiple data points; read-out: EC50 (24 h)

[
  {
    "Molecule": "COc1c(NC(=O)CN2CCC3(CC2)CC(Oc2cccc(-c4ccc(N5CCc6ccnc(C(=O)Nc7nc8ccccc8s7)c6C5)nc4C(=O)O)c2C)C3)ccc2c(C3CCC(=O)NC3=O)nn(C)c12 (stereo not shown) [Compound 184]",
    "DC50": "< 0.01 µM"
  },
  {
    "Molecule": "Cn1nc(C2CCC(=O)NC2=O)c2ccc(NC(=O)CN3CCC(CCCOc4cccc(-c5ccc(N6CCc7cccc(C(=O)Nc8nc9ccccc9s8)c7C6)nc5C(=O)O)c4F)CC3)cc21 (stereo not shown) [Compound 198]",
    "DC50": "0.01 to 0.1 µM"
  },
  {
    "Molecule": "C[C@@H](COc1ccc(-c2ccc(N3CCc4cccc(C(=O)Nc5nc6ccccc6s5)c4C3)nc2C(=O)O)c(C(F)(F)F)c1)CC1CCN(CC(=O)Nc2ccc3c(C4CCC(=O)NC4=O)nn(C)c3c2)CC1 (single isomer, unassigned) [Compound 130a]",
    "DC50": "0.01 to 0.1 µM"
  },
  {
    "Molecule": "Cn1nc(C2CCC(=O)NC2=O)c2ccc(NC(=O)CN3CCC4(CC3)CC(COc3ccc(-c5ccc(N6CCc7cccc(C(=O)Nc8nc9ccccc9s8)c7C6)nc5C(=O)O)c(C(F)(F)F)c3)C4)nc21 (stereo not shown) [Compound 148]",
    "DC50": "0.01 to 0.1 µM"
  },
  {
    "Molecule": "Cn1nc(C2CCC(=O)NC2=O)c2ccc(NC(=O)CN3CCC(CCCOc4ccc(-c5ccc(N6CCc7cccc(C(=O)Nc8nc9ccccc9s8)c7C6)nc5C(=O)O)c(C(F)(F)F)c4)CC3)nc21 (stereo not shown) [Compound 146]",
    "DC50": "0.01 to 0.1 µM"
  },
  {
    "Molecule": "Cc1cc(OCCCC2CCN(CCOc3ccc4c(C5CCC(=O)NC5=O)nn(C)c4c3)CC2)ccc1-c1ccc(N2CCc3cccc(C(=O)Nc4nc5ccccc5s4)c3C2)nc1C(=O)O (stereo not shown) [Compound 178]",
    "DC50": "< 0.01 µM"
  },
  {
    "Molecule": "Cc1c(OC[C@@H]2C[C@@H]2CC2CCN(CC(=O)Nc3ccc4c(C5CCC(=O)NC5=O)nn(C)c4c3)CC2)cccc1-c1ccc(N2CCc3cccc(C(=O)Nc4nc5ccccc5s4)c3C2)nc1C(=O)O (single isomer, unassigned) [Compound 1004c]",
    "DC50": "< 0.01 µM"
  },
  {
    "Molecule": "Cc1c(OC2CC3(CCN(CC(=O)Nc4ccc5c(C6CCC(=O)NC6=O)nn(C)c5c4F)CC3)C2)cccc1-c1ccc(N2CCc3ccnc(C(=O)Nc4nc5ccccc5s4)c3C2)nc1C(=O)O (stereo not shown) [Compound 204]",
    "DC50": "< 0.01 µM"
  },
  {
    "Molecule": "Cn1nc(C2CCC(=O)NC2=O)c2ccc(NC(=O)CN3CCN(CCCO[C@H]4CC[C@H](c5ccc(N6CCc7cccc(C(=O)Nc8nc9ccccc9s8)c7C6)nc5C(=O)O)CC4)CC3)cc21 (stereo partly shown) [Compound 2001a]",
    "DC50": "< 0.01 µM"
  },
  {
    "Molecule": "Cc1cc(OC2CCC3(CC2)CCN(CC(=O)Nc2ccc4c(C5CCC(=O)NC5=O)nn(C)c4c2)CC3)ccc1-c1ccc(N2CCc3cccc(C(=O)Nc4nc5ccccc5s4)c3C2)nc1C(=O)O (stereo not shown) [Compound 221]",
    "DC50": "< 0.01 µM"
  }
]
